- Tested target: hTLR8 (Homo sapiens)
- Construct: host or cells: HEK293 cells stably transfected with hTLR8
- Sequence (Q9NR97 27-1041): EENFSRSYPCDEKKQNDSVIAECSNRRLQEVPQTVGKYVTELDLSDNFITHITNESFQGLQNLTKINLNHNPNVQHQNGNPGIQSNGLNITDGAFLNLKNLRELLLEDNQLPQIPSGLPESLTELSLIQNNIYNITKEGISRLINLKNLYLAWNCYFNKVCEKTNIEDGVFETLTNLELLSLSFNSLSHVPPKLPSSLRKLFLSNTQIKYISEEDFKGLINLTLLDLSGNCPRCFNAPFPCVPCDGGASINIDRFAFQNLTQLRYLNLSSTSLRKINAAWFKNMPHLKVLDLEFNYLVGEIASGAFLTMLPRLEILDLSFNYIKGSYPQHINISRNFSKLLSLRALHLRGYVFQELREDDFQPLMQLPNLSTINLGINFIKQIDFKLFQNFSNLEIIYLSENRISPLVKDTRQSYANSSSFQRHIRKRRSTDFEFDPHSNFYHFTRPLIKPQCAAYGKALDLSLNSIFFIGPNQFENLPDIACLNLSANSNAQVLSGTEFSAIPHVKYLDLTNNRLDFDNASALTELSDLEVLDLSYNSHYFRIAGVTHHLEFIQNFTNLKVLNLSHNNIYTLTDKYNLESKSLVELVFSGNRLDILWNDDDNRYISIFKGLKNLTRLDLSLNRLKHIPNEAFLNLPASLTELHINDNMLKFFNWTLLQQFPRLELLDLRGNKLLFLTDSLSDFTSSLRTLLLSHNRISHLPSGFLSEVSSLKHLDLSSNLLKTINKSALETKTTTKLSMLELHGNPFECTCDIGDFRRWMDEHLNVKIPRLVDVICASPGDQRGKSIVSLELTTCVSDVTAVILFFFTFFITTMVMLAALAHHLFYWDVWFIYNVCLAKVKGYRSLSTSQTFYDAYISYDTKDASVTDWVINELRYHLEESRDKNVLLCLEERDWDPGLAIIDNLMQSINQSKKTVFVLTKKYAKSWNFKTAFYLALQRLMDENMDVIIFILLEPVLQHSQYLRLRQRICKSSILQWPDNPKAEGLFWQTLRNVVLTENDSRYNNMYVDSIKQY
- Protocol text: HEK-293 hTLR8 transfectant antagonist assay (NF-κB driven SEAP reporter)
- Type: cell-based
- Experimental conditions: IC50, nM, vs. VTX-378 1 μM, hTLR8 reporter cells; TLR8 agonist VTX-378 (Compound A) 1 μM
Quantity name: IC50

>  <Compound>
CCOC(=O)C1=Cc2cc(-c3ccc(C(=O)N4CCCC4)cc3)ccc2N=C2NCCC12 (centres unmarked)

>  <Meas value>
< 1000 nM

$$$$
>  <Compound>
CCOC(=O)C1=Cc2cc(-c3c(C)cccc3C)ccc2N=C(N)C1

>  <Meas value>
1000 to 10000 nM

$$$$
>  <Compound>
CCOC(=O)C1=Cc2cc(-c3ccc(OC)cc3)ccc2N=C(N)C1

>  <Meas value>
≥ 10000 nM

$$$$
>  <Compound>
CCOC(=O)C1=Cc2cc(-c3cccc(C)c3Cl)ccc2N=C(N)C1

>  <Meas value>
1000 to 10000 nM

$$$$
>  <Compound>
CCOC(=O)C1=Cc2cc(-c3ccc(C(=O)N(C)C)cc3)ccc2N=C(N)C1

>  <Meas value>
< 1000 nM

$$$$
>  <Compound>
CCOC(=O)C1=Cc2cc(-c3ccccc3C(C)C)ccc2N=C(N)C1

>  <Meas value>
1000 to 10000 nM

$$$$
>  <Compound>
CCOC(=O)C1=Cc2cc(-c3ccc(C(=O)N4CCCC4)cc3)ccc2N=C(NCCO)C1

>  <Meas value>
1000 to 10000 nM

$$$$
>  <Compound>
CCOC(=O)C1=Cc2cc(-c3ccc(N4CCOC4=O)cc3)ccc2N=C(N)C1

>  <Meas value>
< 1000 nM

$$$$
